- Test system: NAMPT (Homo sapiens)
- Construct: His tag; host or cells: E. coli
- Test: Biochemical inhibition assay: NAMPT enzymatic reaction, NMN quantified by mass spectrometry
- Condition parameters: NAMPT enzymatic reaction; read-out: Biochem IC50
Lab note: cut-off is 8 nM. Strictly less in IC50 is MET. Exactly 8 nM or more is NOT MET.

- O=C(NCc1ccc(S(=O)(=O)c2ccc(Cl)c(Cl)c2)cc1)c1cnc2nccn2c1: MET
- O=C(NCc1ccc(S(=O)(=O)c2ccccc2)cc1)c1[nH]c2ccncc2c1Br: NOT MET
- O=C(NCc1ccc(NS(=O)(=O)c2ccccc2OC(F)(F)F)cc1)c1cc2cnccc2[nH]1: MET
- CC(=O)c1cccc(S(=O)(=O)c2ccc(CNC(=O)c3ccc4nccn4c3)cc2)c1: NOT MET
- CCOc1cccc(F)c1S(=O)(=O)c1ccc(CNC(=O)c2cc3ccncc3o2)cc1: NOT MET
- CCCCOc1cccc(S(=O)(=O)c2ccc(CNC(=O)c3cc4cnccc4[nH]3)cc2)c1: NOT MET
- CCOc1cc(Cl)ccc1S(=O)(=O)c1ccc(CNC(=O)c2cc3ccncc3o2)cc1: MET
- COc1ccc(F)cc1S(=O)(=O)c1ccc(CNC(=O)c2cnc3[nH]ncc3c2)cc1: NOT MET
- CCCCOc1ccc(S(=O)(=O)c2ccc(CNC(=O)c3ccc4nccn4c3)cc2)cc1F: MET
- Cc1ccc(C)c(S(=O)(=O)c2ccc(CNC(=O)c3cc4ccncc4o3)cc2)c1: NOT MET
- O=C(NCc1ccc(S(=O)(=O)N2CCCCC2)cc1)c1cc2cnccc2s1: NOT MET
- Cc1ccc(Cl)c(S(=O)(=O)c2ccc(CNC(=O)c3cnc4[nH]ncc4c3)cc2)c1: NOT MET
- CCCOc1ccc(Cl)cc1S(=O)(=O)c1ccc(CNC(=O)c2cnc3[nH]ncc3c2)cc1: NOT MET
- COc1ccc(C)cc1S(=O)(=O)c1ccc(CNC(=O)c2cnc3nccn3c2)cc1: MET
- Cn1ncc2cc(C(=O)NCc3ccc(S(=O)(=O)c4ccccc4)cc3)cnc21: NOT MET
- COc1c(F)cccc1S(=O)(=O)c1ccc(CNC(=O)c2cc3ccncc3s2)cc1: NOT MET
- O=C(NCc1ccc(S(=O)(=O)c2ccc(-n3cccn3)cc2F)cc1)c1cc2ccncc2s1: MET
- COc1ccc(OC)c(S(=O)(=O)c2ccc(CNC(=O)c3cnc4[nH]ncc4c3)cc2)c1OC: NOT MET
- CCCCOc1ccc(S(=O)(=O)c2ccc(CNC(=O)c3cc4cnccc4[nH]3)cc2)cc1: NOT MET

---

# IC50 per record follows
- Test system: NAMPT (Homo sapiens, UniProt P43490)
- Construct: His tag; host or cells: E. coli
- Sequence (P43490 whole entry): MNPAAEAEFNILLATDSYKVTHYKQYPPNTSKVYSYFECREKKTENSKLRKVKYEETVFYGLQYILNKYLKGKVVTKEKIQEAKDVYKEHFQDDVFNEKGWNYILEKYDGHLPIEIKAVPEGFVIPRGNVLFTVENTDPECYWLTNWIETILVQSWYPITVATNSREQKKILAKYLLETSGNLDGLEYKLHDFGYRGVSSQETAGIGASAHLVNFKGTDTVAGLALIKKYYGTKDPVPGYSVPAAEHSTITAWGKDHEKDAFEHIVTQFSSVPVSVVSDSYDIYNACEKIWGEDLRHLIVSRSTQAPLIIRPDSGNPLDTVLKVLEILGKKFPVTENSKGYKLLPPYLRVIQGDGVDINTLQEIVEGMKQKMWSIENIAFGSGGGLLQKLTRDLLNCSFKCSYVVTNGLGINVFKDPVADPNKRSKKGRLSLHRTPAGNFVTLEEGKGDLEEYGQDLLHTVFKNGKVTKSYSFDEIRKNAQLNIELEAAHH
- Test: Biochemical inhibition assay: NAMPT enzymatic reaction, NMN quantified by mass spectrometry
- Condition parameters: NAMPT enzymatic reaction; read-out: Biochem IC50
Readout label: IC50 (nM)

• CS(=O)(=O)c1cccc(S(=O)(=O)c2ccc(CNC(=O)c3cc4ccncc4o3)cc2)c1 = 6
• O=C(NCc1ccc(NS(=O)(=O)c2ccccc2)cc1)c1cc2cnccc2[nH]1 = 11
• CCCCOc1ccc(S(=O)(=O)c2ccc(CNC(=O)c3cc4ccncc4o3)cc2)cc1 = 6.2
• COc1ccc(C)cc1S(=O)(=O)c1ccc(CNC(=O)c2cc3cnccc3[nH]2)cc1 = 12

---

- Test system: NAMPT (Homo sapiens, UniProt P43490)
- Construct: His tag; host or cells: E. coli
- Test: Biochemical inhibition assay: NAMPT enzymatic reaction, NMN quantified by mass spectrometry
- Condition parameters: NAMPT enzymatic assay; read-out: Biochem IC50
Readout label: IC50

* CCNC(=O)c1cccc(S(=O)(=O)c2ccc(CNC(=O)c3cc4ccncc4o3)cc2)c1 | 0.006 µM
* O=C(NCc1ccc(CCS(=O)(=O)c2ccccc2)cc1)c1cc2cnccc2[nH]1 | 0.023 µM
* O=C(NCc1ccc(S(=O)(=O)c2ccccc2CN2CCOCC2)cc1)c1cnc2nccn2c1 | 0.0145 µM

---

- Test system: NAMPT (Homo sapiens, UniProt P43490)
- Construct: His tag; host or cells: E. coli
- Test: Biochemical inhibition assay: NAMPT enzymatic reaction, NMN quantified by mass spectrometry
- Condition parameters: NAMPT enzymatic reaction; read-out: Biochem IC50
Readout label: IC50 (nM)

- Cc1ccc(S(=O)(=O)c2ccc(CNC(=O)c3cc4cnccc4[nH]3)cc2)cc1: 6
- CC(C)c1cccc(S(=O)(=O)c2ccc(CNC(=O)c3cc4ccncc4s3)cc2)c1: 9
- CCOc1ccc(S(=O)(=O)c2ccc(CNC(=O)c3cnc4[nH]ncc4c3)cc2)cc1: 15.1
- O=C(NCc1ccc(S(=O)(=O)c2cccc(Cl)c2)cc1)c1cc2ccncc2o1: 6
- CC(C)c1cccc(S(=O)(=O)c2ccc(CNC(=O)c3cc4cnccc4[nH]3)cc2)c1: 6
- Cc1ccc(F)cc1S(=O)(=O)c1ccc(CNC(=O)c2ccc3nccn3c2)cc1: 12.6
- Cc1cc(C)c(S(=O)(=O)c2ccc(CNC(=O)c3cc4ccncc4o3)cc2)cc1C: 9.1
- CCCOc1ccc(S(=O)(=O)c2ccc(CNC(=O)c3cc4ccncc4s3)cc2)c(C)c1: 12.9
- O=C(NCc1ccc(S(=O)(=O)c2ccccc2)cc1)c1n[nH]c2ncccc12: 1270
- CCOc1ccc(S(=O)(=O)c2ccc(CNC(=O)c3cc4ccncc4s3)cc2)c(C)c1: 1.2
- O=C(NCc1ccc(S(=O)(=O)c2ccccc2)cc1)c1ccc2scnc2c1: 47
- COc1ccc(S(=O)(=O)c2ccc(CNC(=O)c3cnc4nccn4c3)cc2)cc1F: 1.7
- O=C(NCc1ccc(S(=O)(=O)c2ccccc2)cc1)c1cnc2[nH]ccc2c1: 1910
- O=C(NCc1ccc(S(=O)(=O)N2CCCCC2)cc1)c1cc2cccnc2s1: 6150
- COc1ccc(F)c(S(=O)(=O)c2ccc(CNC(=O)c3cnc4nccn4c3)cc2)c1: 10.4
- Cc1cc(S(=O)(=O)c2ccc(CNC(=O)c3cnc4[nH]ncc4c3)cc2)ccc1F: 5
- COc1ccc(S(=O)(=O)c2ccc(CNC(=O)c3cnc4nccn4c3)cc2)cc1: 2.7
- CCCCOc1ccc(S(=O)(=O)c2ccc(CNC(=O)c3cnc4[nH]ncc4c3)cc2)cc1: 27.5
- O=C(NCc1ccc(S(=O)(=O)c2cc(Cl)cc(Cl)c2)cc1)c1cc2cnccc2[nH]1: 1
- CC(=O)c1ccccc1S(=O)(=O)c1ccc(CNC(=O)c2cnc3nccn3c2)cc1: 2.5
- COc1ccc(Cl)c(S(=O)(=O)c2ccc(CNC(=O)c3cc4cnccc4[nH]3)cc2)c1: 11
- COc1ccccc1S(=O)(=O)c1ccc(CNC(=O)c2cc3ccncc3o2)cc1: 18.9
- CCCOc1ccc(S(=O)(=O)c2ccc(CNC(=O)c3cnc4nccn4c3)cc2)cc1: 2.2
- CCCCOc1ccc(S(=O)(=O)c2ccc(CNC(=O)c3cc4cnccc4[nH]3)cc2)cc1F: 53.6
- Cc1cc(F)ccc1S(=O)(=O)c1ccc(CNC(=O)c2cc3ccncc3o2)cc1: 18.7
- Cc1cc(S(=O)(=O)c2ccc(CNC(=O)c3cc4ccncc4s3)cc2)c(C)cc1F: 4.2
- O=C(NCc1ccc(S(=O)(=O)c2ccccc2Cl)cc1)c1cc2cnccc2[nH]1: 6
- CCCOc1ccc(S(=O)(=O)c2ccc(CNC(=O)c3ccc4nccn4c3)cc2)c(C)c1: 9.2

---

- Test system: NAMPT (Homo sapiens)
- Construct: His tag; host or cells: E. coli
- Test: Biochemical inhibition assay: NAMPT enzymatic reaction, NMN quantified by mass spectrometry
- Condition parameters: NAMPT enzymatic assay; read-out: Biochem IC50
# log10 of IC50 per record follows
Readout label: log10 of IC50 (log10 of the value in nM)

- Cn1cc2cc(S(=O)(=O)c3ccc(CNC(=O)c4cnc5nccn5c4)cc3)ccc2n1: 0.08
- O=C(NCc1ccc(S(=O)(=O)c2cncc(C(F)(F)F)c2)cc1)c1ccc2nccn2c1: 0.95
- CN(C)c1ccc(S(=O)(=O)c2ccc(CNC(=O)c3cnc4[nH]ncc4c3)cc2)cn1: 1.48
- O=C(NCc1ccc(S(=O)(=O)c2ccc(Cl)cc2C(F)(F)F)cc1)c1cnc2nccn2c1: 0.90
- Cc1nc(C)c(S(=O)(=O)c2ccc(CNC(=O)c3cc4ccncc4s3)cc2)s1: 0.11
- CC(C)Oc1cccc(S(=O)(=O)c2ccc(CNC(=O)c3cc4ccncc4o3)cc2)c1: 1.10
- Cc1ccc(S(=O)(=O)c2ccc(CNC(=O)c3cc4cnccc4[nH]3)cc2)c(C)c1: 1.32
- Cc1cc(C)c(S(=O)(=O)c2ccc(CNC(=O)c3cc4cnccc4[nH]3)cc2)c(C)c1: 1.88
- CC(C)Oc1cc(F)ccc1S(=O)(=O)c1ccc(CNC(=O)c2ccc3nccn3c2)cc1: 1.35
- O=C(NCc1ccc(S(=O)(=O)c2cccc3ccccc23)cc1)c1cnc2[nH]ncc2c1: 0.96
- Cn1cc2ccc(S(=O)(=O)c3ccc(CNC(=O)c4cc5cnccc5[nH]4)cc3)cc2n1: 0.40
- CN(C)Cc1cccc(S(=O)(=O)c2ccc(CNC(=O)c3cc4ccncc4o3)cc2)c1: 0.67
- O=C(NCc1ccc(S(=O)(=O)c2cccc(OCCN3CCOCC3)c2)cc1)c1cc2ccncc2s1: 0.48
- CC(C)Oc1ccc(S(=O)(=O)c2ccc(CNC(=O)c3cnc4[nH]ncc4c3)cc2)cc1: 0.90
- O=C(NCc1ccc(S(=O)(=O)c2cccc(-n3cccn3)c2)cc1)c1ccc2nccn2c1: 0.68
- Cc1ccc(S(=O)(=O)c2ccc(CNC(=O)c3cc4ccncc4s3)cc2)cn1: 1.34
- O=C(NCc1ccc(S(=O)(=O)c2cc(C(F)(F)F)ccn2)cc1)c1cnc2[nH]ncc2c1: 1.45
- O=C(NCc1ccc(S(=O)(=O)c2ccccc2C(F)(F)F)cc1)c1cnc2nccn2c1: 1.00
- O=C(NCc1ccc(S(=O)(=O)c2cncc(Cl)c2)cc1)c1cc2cnccc2[nH]1: 1.30
- O=C(NCc1ccc(S(=O)(=O)c2cccc(N3CCCC3)c2)cc1)c1cnc2nccn2c1: 0.40
- Cn1ncc2cccc(S(=O)(=O)c3ccc(CNC(=O)c4ccc5nccn5c4)cc3)c21: 1.46
- COc1ccc(S(=O)(=O)c2ccc(CNC(=O)c3ccc4nccn4c3)cc2)nc1: 1.36
- Cn1cnc2ccc(S(=O)(=O)c3ccc(CNC(=O)c4cnc5nccn5c4)cc3)cc21: 0.60
- Cc1nc(S(=O)(=O)c2ccc(CNC(=O)c3cc4ccncc4s3)cc2)ccc1F: 0.92
